# Test system: NCI-H460
# procedure.summary: NCI tumour cell line growth inhibition, 48 h
Activity calls are given as the source filed them. No stated cut-off is given here; in the data, active = GI50 up to about 1.1 µM and inactive = higher.
Classes used: t (active), f (inactive)

compound	assigned.category
CCN(CC)C(=O)c1cc([N+](=O)[O-])c(=O)n2c1[nH]c1ccccc12	f
N#CCCSC1SC(=C2SC3=C(SCCS3)S2)SC1SCCC#N (stereo not given)	f
Cc1[nH]c2ccccc2c1CC/C(=N\Nc1ccccc1)c1ccccc1	f
O=C(CCCN1CCC2(CC1)OC(=O)N(c1ccccc1)C2=O)c1ccccc1	f
COc1cc2c(c3nc4ccccc4nc13)-c1ccc(SC)c(=O)cc1[C@@H](NC(C)=O)CC2	t
O=c1c2cc(Br)ccc2nc(CCl)n1-c1ccc(O)c([N+](=O)[O-])c1	f
CCSc1nc(C)nc2c1sc1nc3ccccc3n12	f
CC(C)(C)c1ccc(O)c(CN(Cc2cc(C(C)(C)C)ccc2O)c2ccccc2)c1	f
COc1ccc(COC(=O)NCC(=O)NC(C)C(=O)NC(Cc2ccccc2)C(=O)OCc2ccccc2)cc1 (stereo not given)	f
COc1cc2c(c(OC)c1OC)-c1ccc(OC)c(=O)cc1[C@@H](N(C)C=O)CC2	t
CSCC[C@@H](NC(=O)[C@H](CC(C)C)NC(=O)C(Cc1cnc[nH]1)NC(=O)CNC(=O)[C@@H](NC(=O)[C@H](C)NC(=O)[C@H](Cc1c[nH]c2ccccc12)NC(=O)[C@H](CCC(N)=O)NC(=O)[C@@H](N)CC(N)=O)C(C)C)C(N)=O (stereo not given in full)	f
O=P1(Cc2ccccc2)N(Cc2ccccc2)[C@@H]2CCCC[C@H]2N1Cc1ccccc1	f
CC(C)CCC[C@@H](C)[C@H]1CC[C@H]2[C@@H]3CC=C4CC(OCCCCN(O)CCCSC5OC(CO)C(O)C(O)C5O)CC[C@]4(C)[C@H]3CC[C@]12C (stereo not given in full)	f
C[NH+]1[C@@H](Cc2ccccc2)C(=O)O[B-]1(F)c1ccccc1 (stereo not given in full)	f
O=S(=O)(NC1OCCCC1I)c1ccccc1 (stereo not given)	f
Cc1ccccc1NC(=O)CSc1nnc(-c2ccc(/N=C\c3ccc(Cl)cc3)cc2)o1	f
CN(C)CC1CCCC/C1=N/OC(=O)c1ccc(Cl)cc1 (stereo not given)	f
CC(O)/C=C/C(CCC(C)CO)C(C)C (stereo not given)	f
O=C(N/N=C\c1ccc([N+](=O)[O-])s1)c1ccncc1	f
CCCCCCCC/C=C1\CCC(CN2CCOCC2)C1=O (stereo not given)	f
O=C(O)c1cscc1Cc1cccs1	f
CC(=O)OCC1=C(CCC#N)N2C(=O)C(NC(=O)Cc3cccs3)C2[S+]([O-])C1 (stereo not given)	f
CCOC(=O)NNC(=O)NCc1cccc(CNC(=O)NNC(=O)OCC)c1	f
Cc1cc(NS(=O)(=O)c2ccc(NC(=O)c3cccc4cc5ccccc5nc34)cc2)no1	f
Cn1c(=O)c2nc(-c3ccc(Cl)cc3)oc2n(C)c1=O	f
CCOC(=O)Oc1ccc2c(c1)c(=O)c1c(NCCN(CC)CC)ccc3nnn2c31	t
CN(C)c1nc(N(C)c2ccccc2)[s+]s1	f
Cc1cc(C)n(CCNCCn2nc(C)cc2C)n1	f
Nc1nc(SCC(=O)O)nc(O)c1N	f
O=C1/C(=C/c2ccccc2)CN(C(=O)Oc2ccc(Cl)cc2)C/C1=C\c1ccccc1	f
Cc1c(-c2ccc(-c3ccccc3F)cc2)nc2ccc(F)cc2c1C(=O)O [BREQUINAR SODIUM]	t
OC(c1cc(C(O)(C(F)(F)F)C(F)(F)F)ncn1)(C(F)(F)F)C(F)(F)F	f
CC(C)(C)OC(=O)NCCC(N)=S	f
COC(=O)NN1C(C)=C(C(=O)OC)C2(C#N)C(C(=O)OC)=C(C)N(NC(=O)OC)C12N (stereo not given)	f
O=C1c2ccccc2C(=O)N1CC1S(=O)(=O)OCCOS1(=O)=O	f
CC1(C(=O)O)CCOc2ccccc21 (stereo not given)	f
CC(=O)OC(C)c1cc2c(s1)C(=O)c1sccc1C2=O (stereo not given)	t
CCNC(=O)O/N=C1/C=C2CC[C@@H]3C(CC[C@@]4(C)C3CC[C@@H]4OC(=O)NCC)[C@@]2(C)CC1 (stereo not given in full)	f
COc1ccc(OC)c2c(C(C)=O)cccc12	f
O[C@]12C=C(c3nccc4c3[nH]c3ccccc34)[C@@H]3CCN(CCCC/C=C\CC1)C[C@@]31CC3/C=C\CCCCN3[C@H]12 (stereo not given in full)	t
